assay: in vitro; conditions: human, hela cells, % viability
The molecules listed here are annotated with their viability at 28.5 h, 10 µM.
Write the value in % as a bare number.

Sample answers from the record:
COc1cc(CCc2cc(O)n3nc(-c4cccc(C)c4)c(C)c3n2)on1
99.8
Fc1ccc(NC(=S)NNC(=S)Nc2cccc3ccccc23)c(F)c1
89.8
Cc1cc(-c2ccc(/N=C/c3cccc(O)c3O)c(C)c2)ccc1/N=C/c1cccc(O)c1O
82.6
Cc1ccc(S(=O)(=O)Nc2ccc(N3C[C@@H](C)N[C@@H](C)C3)c3ccccc23)cc1 [CBK001486C]
87.8
Cc1nc(CCC(=O)N2Cc3cnn(Cc4ccc(F)cc4)c3C2)n[nH]1
109

Lookup: Fill blank: measured viability at 28.5 h, 10 µM of the molecule `Cc1ccc(Oc2c([N+](=O)[O-])c(C)nn2C)c(Br)c1` is ____.
Found: 90.6

Lookup: Lookup `Cc1ccc(CCNc2c([N+](=O)[O-])nn(-c3ccc4c(c3)OCCO4)[n+]2[O-])cc1`
Found: 103

Lookup: Lookup `O=C(O)CNS(=O)(=O)c1c(F)c(F)c(F)c(F)c1F`
Found: 84.6

Lookup: Lookup Cc1ccc2c(c1)C(NC(=O)C1CC1C)CC1(CCOCC1)O2 (stereo not drawn)
Found: 91.8
